- testSummary: Assay of Fe(II)-affinity for biheteroaryl ligands (Fe20-EC50 titration, spectrophotometry)
- Assay type: physicochemical
- experimentalConditions: titration of 20 μM FeSO4, pH 7; mean (±SE) of three replicates
pEC50: −log10 of the molar value.
Values of pEC50 greater than or equal to 3 map to condition met; values below map to condition not met.

Known results for compounds:
>  <compound>
c1ccc(-c2cc[nH]n2)nc1 [pypyr, 2-(1H-pyrazol-3-yl)pyridine, reference compound]

>  <qualitativeLabel>
condition not met

$$$$
>  <compound>
c1ccc(-c2ncco2)nc1

>  <qualitativeLabel>
condition not met

$$$$
>  <compound>
c1ccc(-c2cnccn2)nc1

>  <qualitativeLabel>
condition met

$$$$
>  <compound>
c1ccc(-c2nccs2)nc1

>  <qualitativeLabel>
condition not met

$$$$

Shift focus to the following entry.
Has "c1ccc(-c2cccnn2)nc1" a recorded pEC50 greater than or equal to 3?
condition met

====

- testedTarget: human CP4H1 (Homo sapiens)
- testSummary: Assay of human CP4H1 activity in the presence of inhibitors
- experimentalConditions: dose-response, mean of three independent experiments
measuredMetric: IC50 (µM)
Answers are plain numbers, in µM.

Value lookup for IC50; key = "O=C(O)c1ccc(-c2ncc(C(=O)O)[nH]2)nc1"
2.6

====

- testedTarget: human CP4H1 (Homo sapiens, UniProt P13674)
- Construct: made in house; host or cells: Origami B(DE3) Escherichia coli
- Sequence (P13674 18-534): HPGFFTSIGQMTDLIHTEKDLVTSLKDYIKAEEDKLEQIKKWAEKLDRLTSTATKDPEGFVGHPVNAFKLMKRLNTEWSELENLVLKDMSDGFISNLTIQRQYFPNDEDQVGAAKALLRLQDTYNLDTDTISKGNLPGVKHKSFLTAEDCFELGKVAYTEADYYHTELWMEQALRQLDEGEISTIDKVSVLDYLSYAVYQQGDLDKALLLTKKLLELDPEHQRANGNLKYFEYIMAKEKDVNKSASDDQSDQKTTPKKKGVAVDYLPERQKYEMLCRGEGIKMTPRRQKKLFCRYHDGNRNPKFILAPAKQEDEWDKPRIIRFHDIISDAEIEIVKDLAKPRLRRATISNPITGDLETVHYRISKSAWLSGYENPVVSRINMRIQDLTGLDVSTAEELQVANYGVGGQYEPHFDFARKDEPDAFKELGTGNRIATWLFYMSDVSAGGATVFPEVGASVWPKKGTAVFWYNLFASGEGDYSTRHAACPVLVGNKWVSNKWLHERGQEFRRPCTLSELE
- Sequence (P07237 18-508 partner): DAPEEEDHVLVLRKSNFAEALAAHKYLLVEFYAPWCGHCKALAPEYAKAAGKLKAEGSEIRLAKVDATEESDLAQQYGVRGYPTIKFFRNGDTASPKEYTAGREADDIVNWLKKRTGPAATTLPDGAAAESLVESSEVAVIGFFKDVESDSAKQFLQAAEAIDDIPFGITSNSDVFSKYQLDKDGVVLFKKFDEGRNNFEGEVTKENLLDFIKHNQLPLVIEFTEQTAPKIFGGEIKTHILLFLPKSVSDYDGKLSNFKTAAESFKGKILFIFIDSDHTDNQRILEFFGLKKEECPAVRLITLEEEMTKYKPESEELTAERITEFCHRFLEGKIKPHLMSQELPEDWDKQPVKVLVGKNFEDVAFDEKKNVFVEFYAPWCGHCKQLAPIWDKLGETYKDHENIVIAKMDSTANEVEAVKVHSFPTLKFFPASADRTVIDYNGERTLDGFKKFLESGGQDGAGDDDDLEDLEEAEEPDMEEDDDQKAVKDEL
- testSummary: Assay of human CP4H1 activity in the presence of inhibitors
- Assay type: biochemical
- experimentalConditions: 10 μM compound, 50 μM FeSO4
measuredMetric: Inhibition of catalytic activity of human CP4H1 in initial screen

>  <molecule>
O=C(O)c1ccc(-c2cc(C(=O)O)[nH]n2)nc1 [pypyrDC]

>  <testValue>
modest activation

$$$$
>  <molecule>
O=C(O)c1ccc(-c2ccc(C(=O)O)nn2)nc1 [pypyridDC]

>  <testValue>
modest activation

$$$$

Origin of values: patent US9809586B2
